This collection of values is drawn from patent US8859541B2.

- SYSTEM_UNDER_TEST: XIAP BIR3 (Homo sapiens, UniProt P98170)
- Construct: covering amino acids 241 to 356; XIAP BIR3
- Sequence (P98170 241-356): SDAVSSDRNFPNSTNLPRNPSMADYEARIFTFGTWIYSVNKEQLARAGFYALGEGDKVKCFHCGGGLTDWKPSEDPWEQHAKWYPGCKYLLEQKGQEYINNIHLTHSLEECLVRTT
- ASSAY_DETAILS: XIAP BIR3 binding assay (DELFIA), displacement of SMAC peptide
- DETAILS: GST-fusion BIR3 domain (aa 241 to 356) 10 nM, SMAC peptide 10 nM; activity of the (S)-isomers
pIC50: −log10 of the molar value.
Classification field: label 1 = pIC50 at or over 6; label 0 = pIC50 under 6.

Could you please find out whether CC(N)C(=O)Nc1ccc(-c2cccc3cccnc23)c(C#Cc2ccccc2)n1 (centres unmarked) has pIC50 that meets 6 or exceeds it? label 1

* * *

Catalogue of IC50 readings, one per entry.
- SYSTEM_UNDER_TEST: XIAP BIR3 (Homo sapiens, UniProt P98170)
- Construct: covering amino acids 241 to 356; XIAP BIR3
- ASSAY_DETAILS: XIAP BIR3 binding assay (DELFIA), displacement of SMAC peptide
- DETAILS: GST-fusion BIR3 domain (aa 241 to 356) 10 nM, SMAC peptide 10 nM; activity of the (S)-isomers
Number only, in nM; omit the unit.

Guide cases for IC50, answers given:
CNC(C)C(=O)Nc1ccc(-c2cnn(C)c2-c2ccccc2)c(C#Cc2ccccc2)n1 (centres unmarked)	276
CNC(C)C(=O)Nc1ccc(-c2c(C)noc2C)c(C#Cc2ccc3cnccc3c2)n1 (centres unmarked)	644
CNC(C)C(=O)Nc1ccc(-c2cncnc2)c(C#Cc2ccc3[nH]c(C)nc3c2)n1 (centres unmarked)	460
Cc1ccccc1C#Cc1cccc(NC(=O)C(C)N)n1 (centres unmarked)	1250
CNC(C)C(=O)Nc1ccc(-c2cncc(C(=O)O)c2)c(C#Cc2ccccc2)n1 (centres unmarked)	185
CNC(C)C(=O)Nc1ccc(-c2ccccc2Cl)c(C#Cc2ccccc2)n1 (centres unmarked)	1770

According to the records, this compound CC(N)C(=O)Nc1cccc(C#Cc2ccccc2Cl)n1 (centres unmarked) displays IC50 of 1420

In plain terms, CNC(C)C(=O)Nc1ccc(-c2c(C)nc3ccccn23)c(C#Cc2ccc(-c3cnco3)cc2)n1 (centres unmarked) has a documented IC50 of 136

* * *

- SYSTEM_UNDER_TEST: XIAP BIR3 (Homo sapiens, UniProt P98170)
- Construct: covering amino acids 241 to 356; XIAP BIR3
- ASSAY_DETAILS: XIAP BIR3 binding assay (DELFIA), displacement of SMAC peptide
- DETAILS: GST-fusion BIR3 domain (aa 241 to 356) 10 nM, SMAC peptide 10 nM; activity of the (S)-isomers
VALUE_KIND: IC50 (nM)
State just the number; it will be interpreted in nM.

Solved cases (4 shown):
CNC(C)C(=O)Nc1ccc(-c2nnc(Cl)c3ccccc23)c(C#Cc2ccccc2)n1 (centres unmarked)	138
CCCc1ccc(NC(=O)C(C)N)nc1C#Cc1ccccc1 (centres unmarked)	874
CNC(C)C(=O)Nc1ccc(-c2cc(C(=O)OC)cc([N+](=O)[O-])c2)c(C#Cc2ccccc2)n1 (centres unmarked)	142
CC(N)C(=O)Nc1cccc(C#CC2=CCCCC2)n1 (centres unmarked)	7040

Entry Cc1cccc(C)c1-c1ccc(NC(=O)C(C)N)nc1C#Cc1ccccc1 (centres unmarked) — recorded IC50 = 2020
